# System: NCI-H460
# protocol-description: Growth inhibition of human NCI-H460 cells
# Assay type: functional
Give GI50 for every item shown.
Returns: string containing the numeric result and its unit.

Incoming: If you can, please state the reported GI50 value of CC(C)C[C@H](NC(=O)Cn1ccc2ccc(Br)cc2c1=O)B(O)O .
Outgoing: 5.58 µM

Incoming: Same read-out for CC(C)C[C@H](NC(=O)CCn1ccc2ccccc2c1=O)B(O)O ?
Outgoing: 13 µM

Incoming: Same read-out for CC(C)C[C@H](NC(=O)[C@H](Cc1ccccc1)NC(=O)c1cnccn1)B(O)O ?
Outgoing: 0.00447 µM

Incoming: Same read-out for CC(C)C[C@H](NC(=O)CCn1ccc2ncccc2c1=O)B(O)O ?
Outgoing: 36.2 µM

Incoming: Same read-out for CC(C)C[C@H](NC(=O)CCn1ccc2ccc(Br)cc2c1=O)B(O)O ?
Outgoing: 3.18 µM

----------
# assay-target: Chymotrypsinogen A (Bos taurus, UniProt P00766)
# protocol-description: Inhibition of bovine pancreatic alpha-chymotrypsin using Suc-Leu-Leu-Val-Tyr-AMC as substrate by fluorescence assay
outcome-measure: Ki

Consider the reported Ki for these compounds:
Incoming: If you can, please state the reported Ki value of CC(C)C[C@H](NC(=O)Cn1cc(Br)c2ncccc2c1=O)B(O)O .
Outgoing: Not Active

Incoming: Same read-out for CC(C)C[C@H](NC(=O)CCn1ccc2ccccc2c1=O)B(O)O ?
Outgoing: Not Active

Incoming: Same read-out for CC(C)C[C@H](NC(=O)CCn1cc(Br)c2ncccc2c1=O)B(O)O ?
Outgoing: Not Active

Incoming: Same read-out for CC(C)CCNC(=O)CCn1cc(Br)c2ncccc2c1=O ?
Outgoing: Not Active

New cases:
Incoming: If you can, please state the reported Ki value of CC(C)CCNC(=O)Cn1ccc2ccc(Br)cc2c1=O .
Outgoing: Not Active

Incoming: Same read-out for CC(C)C[C@H](NC(=O)CCn1ccc2ncccc2c1=O)B(O)O ?
Outgoing: Not Active

----------
# Test system: NCI-H522
# protocol-description: Growth inhibition of human NCI-H522 cells
# Format: functional
outcome-measure: LC50

Incoming: If you can, please state the reported LC50 value of CC(C)C[C@H](NC(=O)Cn1ccc2ccc(Br)cc2c1=O)B(O)O .
Outgoing: 9.06 µM

Incoming: Same read-out for CC(C)C[C@H](NC(=O)CCn1ccc2ccc(Br)cc2c1=O)B(O)O ?
Outgoing: > 100 µM

Incoming: Same read-out for CC(C)C[C@H](NC(=O)CCn1ccc2ncccc2c1=O)B(O)O ?
Outgoing: > 100 µM

Incoming: Same read-out for CC(C)C[C@H](NC(=O)CCn1ccc2ccccc2c1=O)B(O)O ?
Outgoing: > 100 µM

----------
# protocol-description: Cytotoxicity against human leukemia cells assessed as cell growth at 10 uM relative to control
# Format: functional
# assay-conditions: read-out: Activity
growth at 10 µM under 30% gets True, anything at or over 30% gets False.

Incoming: For this compound, is growth at 10 µM lower than 30%? CC(C)C[C@H](NC(=O)CCn1ccc2ccc(Br)cc2c1=O)B(O)O
Outgoing: True

Incoming: Same read-out for CC(C)C[C@H](NC(=O)CCn1ccc2ccccc2c1=O)B(O)O ?
Outgoing: True

Incoming: Same read-out for CC(C)C[C@H](NC(=O)Cn1ccc2ccccc2c1=O)B(O)O ?
Outgoing: True

Incoming: Same read-out for CC(C)C[C@H](NC(=O)Cn1ccc2ccc(Br)cc2c1=O)B(O)O ?
Outgoing: True

Incoming: Same read-out for COc1cc2ccn(CCC(=O)NCCC(C)C)c(=O)c2cc1OC ?
Outgoing: False

Incoming: Same read-out for COc1cc2ccn(CCC(=O)N[C@@H](CC(C)C)B(O)O)c(=O)c2cc1OC ?
Outgoing: False

Incoming: Same read-out for CC(C)C[C@H](NC(=O)CCn1ccc2ncccc2c1=O)B(O)O ?
Outgoing: False

Incoming: Same read-out for CC(C)CCNC(=O)Cn1ccc2ccccc2c1=O ?
Outgoing: False

Incoming: Same read-out for CC(C)CCNC(=O)CCn1ccc2ccc(Br)cc2c1=O ?
Outgoing: False

Incoming: Same read-out for COc1cc2ccn(CC(=O)N[C@@H](CC(C)C)B(O)O)c(=O)c2cc1OC ?
Outgoing: False
